- tested_target: Brd4 bromodomain 1 (Homo sapiens, UniProt O60885)
- Construct: made in house; host or cells: E. coli BL21(DE3)
- method: Inhibition of binding of tetra-acetylated histone H4 and Brd4 bromodomain 1 by TR-FRET
- reported_conditions: His-tagged bromodomain 200 nM, biotinylated tetra-acetylated histone H4 peptide 25-50 nM, 2 hours at room temperature
Where a name gives a salt, the structure may show the parent alone.
property_name: FRET activity (<50 uM)

compound="N=C(N)NCCC[C@H](N)C(=O)Oc1ccc(-c2cc3ccccc3c(=O)[nH]2)cc1 (stereo in doubt) [Example 2, trihydrochloride]" tested_target="Brd4 bromodomain 1 (Homo sapiens, UniProt O60885)" property_name="FRET activity (<50 uM)" result=Active
compound="COc1cc(OC)c2c(=O)[nH]c(-c3cccnc3)nc2c1 [Example 22]" tested_target="Brd4 bromodomain 1 (Homo sapiens, UniProt O60885)" property_name="FRET activity (<50 uM)" result=Active
compound="CC(=O)Nc1ccc2nc(-c3cc(C)c(OCCO)c(C)c3)[nH]c(=O)c2c1 [Example 68]" tested_target="Brd4 bromodomain 1 (Homo sapiens, UniProt O60885)" property_name="FRET activity (<50 uM)" result=Inactive
compound="COc1ccc2nc(-c3cc(C)c(OCCO)c(C)c3)[nH]c(=O)c2c1 [Example 76]" tested_target="Brd4 bromodomain 1 (Homo sapiens, UniProt O60885)" property_name="FRET activity (<50 uM)" result=Inactive
compound="COc1cc(OC)c2c(=O)[nH]c(-c3cc(C)c(OCCO)c(C)c3)cc2c1 [Example 6]" tested_target="Brd4 bromodomain 1 (Homo sapiens, UniProt O60885)" property_name="FRET activity (<50 uM)" result=Active
compound="COc1cc2c(c(OC)c1)S(=O)(=O)NC(c1cc(C)c(O)c(C)c1)=C2 [Example 12]" tested_target="Brd4 bromodomain 1 (Homo sapiens, UniProt O60885)" property_name="FRET activity (<50 uM)" result=Active
compound="COc1cc(O)c2c(=O)[nH]c(-c3cc(C)c(O)c(C)c3)nc2c1 [Example 98]" tested_target="Brd4 bromodomain 1 (Homo sapiens, UniProt O60885)" property_name="FRET activity (<50 uM)" result=Inactive
compound="CNC(=O)c1ccccc1C(=O)NCCOc1c(C)cc(-c2nc3cc(OC)cc(OC)c3c(=O)[nH]2)cc1C [Example 93]" tested_target="Brd4 bromodomain 1 (Homo sapiens, UniProt O60885)" property_name="FRET activity (<50 uM)" result=Active

----------
Where a name gives a salt, the structure may show the parent alone.
property_name: melting point

compound=COc1cc(OC)c2c(=O)[nH]c(-c3ccc(N(CCO)CCO)cc3)nc2c1 result="249 to 251 °C"
compound="COc1cc(OC)c2c(=O)[nH]c(-c3cc(C)c(OCCN4CCN(C)CC4)c(C)c3)cc2c1 (as salt: hydrochloride)" result="195 to 198 °C"
compound=COc1cc(OC)c2c(=O)[nH]c(-c3ccc(OCCO)c(OC)c3)nc2c1 result="246 to 248 °C"
compound=Cc1cc(-c2nc3cc(Cl)cc(Cl)c3c(=O)[nH]2)cc(C)c1OCCO result="260.8 to 262.6 °C"
compound=COc1cc(O)c2c(=O)[nH]c(-c3cc(C)c(O)c(C)c3)nc2c1 result="291.3 to 293 °C"
compound=COc1cc(OC)c2c(=O)[nH]c(-c3cc(C)c(O)c(C)c3)nc2n1 result="297 to 299 °C"
compound="COc1cc(OC)c2c(=O)[nH]c(-c3cc(C)c(OCCN4CCOCC4)c(C)c3)nc2c1 (as salt: hydrochloride)" result="185 to 187 °C"
compound=Cc1cc(-c2nc3ccccc3c(=O)[nH]2)cc(C)c1OCCO result="260 to 261 °C"

----------
Structures can show the parent of a compound that is named as a salt.
Recorded melting point values for a group of compounds are listed next.
property_name: melting point

compound="Cc1cc(-c2nc3ccccc3c(=O)[nH]2)cc(C)c1OCCN1CCOCC1 (as salt: hydrochloride)" property_name="melting point" result="300 to 302 °C"
compound=COc1cc(OC)c2c(=O)[nH]c(-c3ccc(N(C)C)c4ccccc34)nc2c1 property_name="melting point" result="269 to 271 °C"
compound=COc1cc(OC)c2c(=O)[nH]c(-c3ccc(OCC(N)=O)cc3)nc2c1 property_name="melting point" result="309 to 311 °C"
compound=COc1cc(OC)c2c(=O)[nH]c(-c3ccc(OC)c(CN4CCOCC4)c3)nc2c1 property_name="melting point" result="282.7 to 284.5 °C"
compound="COc1cc(OC)c2c(=O)[nH]c(-c3cc(C)c(OCCN(C)C)c(C)c3)cc2c1 (as salt: hydrochloride)" property_name="melting point" result="261 to 263 °C"
compound="COc1cc(OC)c2c(=O)[nH]c(-c3cccnc3)nc2c1 (as salt: hydrochloride)" property_name="melting point" result="257 to 259 °C"
compound=COc1cc(OC)c2c(=O)nc(-c3cc(C)c(O)c(C)c3)n(C)c2c1 property_name="melting point" result="188.5 to 189.1 °C"
compound=COc1cc(OC)c2c(=O)n(C)c(-c3cc(C)c(O)c(C)c3)cc2c1 property_name="melting point" result="253 to 254 °C"
compound=COc1cc(OC)c2c(=O)[nH]c(-c3cc(C)c(OC)c(C)c3)cc2n1 property_name="melting point" result="262 to 263 °C (dec.)"
compound="COc1cc(OC)c2c(=O)[nH]c(-c3ccncc3)nc2c1 (as salt: hydrochloride)" property_name="melting point" result="294 to 295 °C"
compound=COc1cc(OC)c2c(=O)[nH]c(-c3cc(C)c(NC(=O)CO)c(C)c3)nc2c1 property_name="melting point" result="190 to 192 °C"
compound="COc1cc(OC)c2c(=O)[nH]c(-c3ccccn3)nc2c1 (as salt: hydrochloride)" property_name="melting point" result="215 to 217 °C"
compound=COc1cc(OC)c2c(=O)[nH]c(-c3ccc(OCC(=O)O)c(OC)c3)nc2c1 property_name="melting point" result="275 to 277 °C"
compound="COc1cc(OC)c2c(=O)[nH]c(-c3ccc(CN4CCOCC4)cc3)nc2c1 (as salt: hydrochloride)" property_name="melting point" result="206 to 208 °C (dec.)"
compound=COc1cc(OC)c2c(=O)[nH]c(-c3cc(C)c(OCC(C)(C)O)c(C)c3)cc2c1 property_name="melting point" result="252 to 254 °C"
compound=COc1cc2nc(-c3cc(C)c(OCCO)c(C)c3)[nH]c(=O)c2cc1OC property_name="melting point" result="> 300 °C"

----------
Counter-ions that a name gives are not always drawn.
Recorded melting point values for a group of compounds are listed next.
property_name: melting point

compound=COc1cc(OC)cc(-c2nc3cc(OC)cc(OC)c3c(=O)[nH]2)c1 result="270 to 272 °C"
compound=COc1cc2c(c(OC)c1)S(=O)(=O)NC(c1cc(C)c(O)c(C)c1)=C2 result="246.6 to 247.4 °C"
compound=COc1cc2cc(-c3cc(C)c(O)c(C)c3)[nH]c(=O)c2c(OC)c1CN1CCOCC1 result="158 to 161 °C"
compound="CCN1CCN(Cc2ccc(-c3nc4cc(OC)cc(OC)c4c(=O)[nH]3)cc2)CC1 (as salt: hydrochloride)" result="278 to 280 °C (dec.)"
compound=COc1cc2nc(-c3ccc(N(CCO)CCO)cc3)[nH]c(=O)c2cc1OC result="268 to 270 °C"
compound="COc1cc(O)nc2cc(-c3cc(C)c(O)c(C)c3)[nH]c(=O)c12 (as salt: hydrochloride)" result="> 330 °C"
compound=O=C(O)COc1ccc(-c2nc3ccccc3c(=O)[nH]2)cc1 result="285 to 287 °C"
compound=COc1cc(OC)c2c(=O)[nH]c(-c3cc(C)c(OCCO)c(C)c3)nc2n1 result="255 to 256 °C"
compound="COc1cc(OC)c2c(=O)[nH]c(-c3cc(C)c(O)c(C)c3)cc2n1 (as salt: HCl)" result="> 324 °C"
compound=COc1ccc(-c2nc3cc(OC)cc(OC)c3c(=O)[nH]2)cc1 result="276 to 277 °C"
compound=COc1cc2nc(-c3cc(C)c(O)c(C)c3)[nH]c(=O)c2c(OC)c1CN1CCOCC1 result="237 to 239.1 °C"
compound=COc1cc(OC)c2c(=O)[nH]c(-c3ccc(O)c(Cl)c3)nc2c1 result="279 to 281 °C"
compound=COc1cc(OC)c2c(=O)[nH]c(-c3ccc(O)cc3)cc2c1 result="245 to 247 °C"
compound=COc1cc(OC)c2c(=O)[nH]c(-c3ccc4c(c3)OCCO4)nc2c1 result="307.5 to 309.6 °C"
compound=COc1cc(OC)c2c(=O)[nH]c(-c3ccc(O)c(OC)c3)nc2c1 result="294 to 296 °C"
compound="Cc1cc(-c2nc3ccc(CN4CCOCC4)cc3c(=O)[nH]2)cc(C)c1O (as salt: hydrochloride)" result="284 to 286 °C"

FYI, the data here is from patent US20130281397A1.
